target_entity: human MC3R (human, UniProt P41968 1-323)
Sequence (P41968 whole entry): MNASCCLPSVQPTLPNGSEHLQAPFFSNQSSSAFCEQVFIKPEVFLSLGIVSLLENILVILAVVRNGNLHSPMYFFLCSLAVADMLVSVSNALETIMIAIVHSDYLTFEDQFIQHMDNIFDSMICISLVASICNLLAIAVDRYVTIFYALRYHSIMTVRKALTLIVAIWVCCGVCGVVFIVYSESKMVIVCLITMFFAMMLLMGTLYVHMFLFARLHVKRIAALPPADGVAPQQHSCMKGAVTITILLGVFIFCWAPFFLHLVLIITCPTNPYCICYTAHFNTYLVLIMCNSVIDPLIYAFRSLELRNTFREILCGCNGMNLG
assay_comment: cell-based or functional assay
Non-standard residues stand in square brackets, D forms with d. Phe(4-I) = N[C@@H](Cc1ccc(I)cc1)C(=O)O; Nle = CCCC[C@H](N)C(=O)O; dAbu = CC[C@@H](N)C(=O)O; R1 = not defined here
recorded_metric: MC3R selectivity (relative to MC4R)
Give bare numbers.

Below, 2 binders whose answers are already recorded.
binder	recorded_metric	test_result
Ac-[Nle][dA]H[Phe(4-I)]R[dW]DRFG-OH (SMILES CCCC[C@H](NC(C)=O)C(=O)N[C@H](C)C(=O)N[C@@H](Cc1c[nH]cn1)C(=O)N[C@@H](Cc1ccc(I)cc1)C(=O)N[C@@H](CCCNC(=N)N)C(=O)N[C@H](Cc1c[nH]c2ccccc12)C(=O)N[C@@H](CC(=O)O)C(=O)N[C@@H](CCCNC(=N)N)C(=O)N[C@@H](Cc1ccccc1)C(=O)NCC(=O)O) [CTX-1167]	MC3R selectivity (relative to MC4R)	937
Ac-[Nle][dAbu]HFR[dW]DRFG-OH (SMILES CCCC[C@H](NC(C)=O)C(=O)N[C@H](CC)C(=O)N[C@@H](Cc1c[nH]cn1)C(=O)N[C@@H](Cc1ccccc1)C(=O)N[C@@H](CCCNC(=N)N)C(=O)N[C@H](Cc1c[nH]c2ccccc12)C(=O)N[C@@H](CC(=O)O)C(=O)N[C@@H](CCCNC(=N)N)C(=O)N[C@@H](Cc1ccccc1)C(=O)NCC(=O)O) [CTX-1144]	MC3R selectivity (relative to MC4R)	2630

Note: attention shifts to another entry.
Prompt: Requested read-out: MC3R selectivity (relative to MC4R). Entry: Ac-[Nle][dA]HFR[dW]DR[dF]K(R1)-OH (reading uncertain) [CTX-1161]
Completion: 22
